Data origin: patent US8420634B2

Structures can show the parent of a compound that is named as a salt.
# melting point per record follows

// solved cases for melting point follow
Record CCNC(=S)NC1=Nc2ccc(OC(F)(F)F)cc2CS1 . Reported melting point: 169 to 172 °C

Input CCCNC(=S)NC1=Nc2ccc(OC(F)(F)F)cc2CS1 . Output melting point: 148 to 151 °C

Value of measured melting point for the entry CCNC(=S)Nc1nc2ccc(OC(F)(F)F)cc2s1 : 199 to 200 °C

Next:
Briefly, melting point measured for CN/C(C)=N/C1=Nc2ccccc2SC1 (as salt: oxalate) : 164 to 166 °C (dec.)

Data point: CCNC(=N)Nc1nc2ccc(OC(F)(F)F)cc2s1 ; melting point = 127 to 129 °C

C/C(=N\C1=Nc2ccccc2SC1)N(C)C (as salt: oxalate) has a reported melting point of 120 to 122 °C (dec.)

Field melting point (entry CCCNC(=S)Nc1nc2ccc(OC(F)(F)F)cc2s1 ) reads 226 to 228 °C

Reported melting point ( CC(C)NC(=S)Nc1nc2ccc(OC(F)(F)F)cc2s1 ) = 242 °C

The reported value for FC(F)(F)Oc1ccc2nc(NC(=S)Nc3ccccc3)sc2c1 in terms of melting point is 234 °C

Record Fc1ccc(NC(=S)Nc2nc3ccc(OC(F)(F)F)cc3s2)cc1 , field melting point: 207 °C

For reference, reported melting point for CCCNC(=S)NC1=Nc2ccc(OC(F)(F)F)cc2SC1 stands at 180 to 182 °C

The recorded melting point for entry CCCCNC(=S)Nc1nc2ccc(OC(F)(F)F)cc2s1 equals 211 °C

According to the records, this molecule CCCNC(=S)NC1=Nc2ccccc2CS1 displays melting point of 180 to 184 °C

---

Measured melting point values are reported for all entries that follow.
Counter-ions that a name gives are not always drawn.

Form field melting point, entry CCNC(=S)NC1=Nc2ccc(OC(F)(F)F)cc2SC1 : 199 to 201 °C

melting point reported for this compound CCNC(=S)NC1=Nc2ccccc2CS1 : 191 to 196 °C

Per the record, CN/C(C)=N/C1=Nc2ccccc2CS1 (as salt: oxalate) has melting point of 110 to 113 °C (dec.)

Summary for this compound, CCCNC(=N)Nc1nc2ccc(OC(F)(F)F)cc2s1 : melting point is 110 to 111 °C

# next compound below
Data point: C/C(=N\C1=Nc2ccccc2CS1)N(C)C (as salt: oxalate) ; melting point = 154 to 157 °C (dec.)
